These data points were gathered from paper PMC4538536.

experiment: In vivo pharmacokinetics in infected mice (plasma, LC-MS/MS); design: species or system BALB/c mice; conditions: BALB/c, mouse, plasma, po, 150 mg/kg, Group 5 quartet EMB 100/BDQ 25/SQ109 25/PZA 150 mg/kg oral; steady state, infected mice; read-out: AUC0-24 in Quartet
measure_name: AUC(0-t) (ng·h/mL)
Express the result in ng·h/mL but write the number alone.

Worked examples, 3 molecules total:
[
  {
    "molecule": "CC[C@@H](CO)NCCN[C@@H](CC)CO",
    "measured": 4000
  },
  {
    "molecule": "NC(=O)c1cnccn1 [Pyrazinamide]",
    "measured": 144000
  },
  {
    "molecule": "CC(C)=CCC/C(C)=C/CNCCNC1C2CC3CC(C2)CC1C3 (stereo not shown)",
    "measured": 4900
  }
]

Consider the record given below.
Consider the molecule COc1nc2ccc(Br)cc2cc1[C@@H](c1ccccc1)[C@@](O)(CCN(C)C)c1cccc2ccccc12 . State its measured AUC(0-t).
21500
